Target: Estrogen receptor beta (Homo sapiens) (UniProt Q92731)
Sequence (Q92731 whole entry): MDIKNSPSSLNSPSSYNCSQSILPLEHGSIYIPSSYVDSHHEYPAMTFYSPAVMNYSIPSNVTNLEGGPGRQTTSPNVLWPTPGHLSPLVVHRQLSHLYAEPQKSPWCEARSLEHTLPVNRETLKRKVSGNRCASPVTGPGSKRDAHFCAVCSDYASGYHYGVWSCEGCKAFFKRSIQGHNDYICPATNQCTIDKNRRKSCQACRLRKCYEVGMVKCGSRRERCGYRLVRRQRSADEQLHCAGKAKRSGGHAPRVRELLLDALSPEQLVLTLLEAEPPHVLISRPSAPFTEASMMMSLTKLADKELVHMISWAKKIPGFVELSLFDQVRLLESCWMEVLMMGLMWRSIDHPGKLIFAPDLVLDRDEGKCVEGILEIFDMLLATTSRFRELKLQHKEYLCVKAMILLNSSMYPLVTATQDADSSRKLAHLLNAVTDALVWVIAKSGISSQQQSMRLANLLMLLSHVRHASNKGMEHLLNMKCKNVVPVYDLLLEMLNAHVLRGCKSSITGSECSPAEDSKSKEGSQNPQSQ
Assay: Ratio of estradiol IC50 to compound IC50 for ERbeta receptor by relative binding affinity assay
Kindly state Ratio IC50 for each of the entries shown.

The compound listed as Cc1cc(C)c(B(Nc2ccc(O)cc2)c2c(C)cc(C)cc2C)c(C)c1 shows Ratio IC50 equal to 0.18

The compound listed as Cc1cccc(C)c1B(c1c(C)cccc1C)N(C)c1ccc(O)cc1 shows Ratio IC50 equal to 16

The compound listed as CCN(B(c1c(C)cc(C)cc1C)c1c(C)cc(C)cc1C)c1ccc(O)cc1 shows Ratio IC50 equal to 1.1

The compound listed as Cc1cc(C)c(B(c2c(C)cc(C)cc2C)N(C)c2ccc(O)cc2)c(C)c1 shows Ratio IC50 equal to 3.1

The compound listed as Cc1cc(C)c(B(c2c(C)cc(C)cc2C)N(CC(F)(F)F)c2ccc(O)cc2)c(C)c1 shows Ratio IC50 equal to 1.3

The compound listed as Cc1cccc(C)c1B(c1c(C)cccc1C)N(CC(F)(F)F)c1ccc(O)cc1 shows Ratio IC50 equal to 5.8

The compound listed as CCCCCN(B(c1c(C)cc(C)cc1C)c1c(C)cc(C)cc1C)c1ccc(O)cc1 shows Ratio IC50 equal to 0.12
